Target: Monoglyceride lipase (Homo sapiens, UniProt Q99685)
Protocol Summary: Inhibition of human MAGL expressed in HEK293 cells pre-incubated for 10 mins before 2-AG substrate addition by HPLC method
Assay type: cell-based
Study Conditions: hek293; read-out: IC50
pIC50: −log10 of the molar value.
Readout Name: pIC50

INSERT INTO results (compound_string, readout_name, reading) VALUES
  ('O=C(N1CCC(=C2c3ccc(Cl)cc3CCc3cccnc32)CC1)n1cncn1', 'pIC50', 7.34);

----------
Target: Monoglyceride lipase (Homo sapiens)
Sequence (whole entry): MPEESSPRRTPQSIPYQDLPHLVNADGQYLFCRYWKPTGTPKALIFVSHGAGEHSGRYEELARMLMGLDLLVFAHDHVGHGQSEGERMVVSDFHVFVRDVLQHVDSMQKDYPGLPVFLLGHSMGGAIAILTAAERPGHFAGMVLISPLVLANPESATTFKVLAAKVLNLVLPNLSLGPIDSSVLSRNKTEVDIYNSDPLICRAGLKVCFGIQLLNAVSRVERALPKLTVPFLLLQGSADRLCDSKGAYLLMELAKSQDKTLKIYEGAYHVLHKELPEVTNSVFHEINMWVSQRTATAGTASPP
Protocol Summary: Inhibition of human MAGL expressed in HEK293 cells at 10 uM pre-incubated for 10 mins before 2-AG substrate addition by HPLC method
Assay type: cell-based
Activity calls are given as the source filed them. No cut-off for these calls is given here.
Readout Name: inhibition

INSERT INTO measurements (compound_string, target, readout_name, reading) VALUES
  ('COc1nn(Cc2cccc(NC(C)=O)c2)c(=O)o1', 'Monoglyceride lipase (Homo sapiens)', 'inhibition', '12%'),
  ('COc1cccc(Cn2nc(OC)oc2=O)c1', 'Monoglyceride lipase (Homo sapiens)', 'inhibition', '6%'),
  ('COc1nn(Cc2ccccc2Oc2ccccc2)c(=O)o1', 'Monoglyceride lipase (Homo sapiens)', 'inhibition', 'inactive'),
  ('COc1nn(Cc2cccc3ccccc23)c(=O)o1', 'Monoglyceride lipase (Homo sapiens)', 'inhibition', '11%'),
  ('CN(C(=O)Oc1nsnc1N1CCOCC1)C1CCCCCCC1', 'Monoglyceride lipase (Homo sapiens)', 'inhibition', 'inactive'),
  ('COc1nn(Cc2cccc([N+](=O)[O-])c2)c(=O)o1', 'Monoglyceride lipase (Homo sapiens)', 'inhibition', '32%'),
  ('COc1nn(Cc2ccccc2N)c(=O)o1', 'Monoglyceride lipase (Homo sapiens)', 'inhibition', '4%'),
  ('COc1nn(Cc2cccc(C(F)(F)F)c2)c(=O)o1', 'Monoglyceride lipase (Homo sapiens)', 'inhibition', '48%'),
  ('COc1nn(Cc2cccc(C#N)c2)c(=O)o1', 'Monoglyceride lipase (Homo sapiens)', 'inhibition', '23%'),
  ('COc1nn(Cc2cccc(NC(=O)c3ccccc3)c2)c(=O)o1', 'Monoglyceride lipase (Homo sapiens)', 'inhibition', '48%'),
  ('CCOc1nn(Cc2cccc([N+](=O)[O-])c2)c(=O)o1', 'Monoglyceride lipase (Homo sapiens)', 'inhibition', '30%'),
  ('COc1nn(Cc2ccccc2NC(C)=O)c(=O)o1', 'Monoglyceride lipase (Homo sapiens)', 'inhibition', '3%'),
  ('COc1nn(Cc2ccccc2)c(=O)o1', 'Monoglyceride lipase (Homo sapiens)', 'inhibition', 'inactive');

The measured values listed here are drawn from ChEMBL document CHEMBL3612019.
